# System: NCI-H322M lung
# assayName: NCI-60 one-dose screen, 48 h
# conditionDescription: 10 µM unless noted
The panel holds about 83,000 compounds, 20% with a hit somewhere; the sample as a whole holds those more often. Activity calls are given as the source filed them. The calls were made as follows: active = growth percent below 10; inactive = the rest.
Classes to choose from: T for active, F for inactive

Below, 6 compounds whose answers are already recorded.
- compound: "CCN1C(=O)/C(=C/C(=O)OC)S/C1=N\\NC(=O)c1cc2ccc1/C=C\\c1ccc(cc1)/C=C\\2"
  testTarget: "NCI-H322M lung"
  class: "F"
- compound: "C/C=C(\\C)C(=O)NC1=CC[C@@]2(C)C(=CCC3C2CC[C@@]2(C)C3CC[C@@H]2C(C)N(C)C)C1=O (stereo not given in full)"
  testTarget: "NCI-H322M lung"
  class: "F"
- compound: "OCc1cnccc1NCCCOc1ccccc1"
  testTarget: "NCI-H322M lung"
  class: "F"
- compound: "CN1CCC(=C(c2ccccc2)c2ccccc2)C(c2ccccc2)C1 (stereo not given)"
  testTarget: "NCI-H322M lung"
  class: "F"
- compound: "COc1ccc(C(=O)Nc2cccc(C3CCc4c(cc(OC)c(OC)c4OC)O3)c2)cc1 (stereo not given)"
  testTarget: "NCI-H322M lung"
  class: "F"
- compound: "O=C(NCCc1ccccc1)Nc1ccc2cc3ccc(NC(=O)NCCc4ccccc4)cc3nc2c1"
  testTarget: "NCI-H322M lung"
  class: "F"

Please share the test call associated with O=C(Cn1c[n+](CC(=O)c2ccc(-c3ccccc3)cc2)c2ccccc21)Nc1cccc2cccnc12 . F

Outcome? Cc1cc2cc3ccc(N(C)C)cc3nc2cc1N T

So what was the verdict on CCCNC(=O)Oc1ccc(/C(=C(\C)c2ccccc2)c2ccc(OCCCN(C)C)cc2)cc1 in this test? F

Test call for this compound, please: CC(=O)N1N=C(c2ccc(-n3ccc(C(F)(F)F)n3)c(F)c2)CC1c1ccc[nH]1 (stereo not given) F

---

# System: SW-620 colon
# assayName: NCI-60 one-dose screen, 48 h
# conditionDescription: 10 µM unless noted
This is part of a sample that, as a whole, favours compounds with a hit. Of some 83,000 tested, about 20% had one in any assay. Calls of active or inactive are those of the source. Rule for the calls: active = growth percent below 10; inactive = the rest.
Thanks in advance; please answer with one of these: active, inactive

Recorded results for 5 molecules are shown here.
- itemSmiles: "CCN(c1ccccc1)S(=O)(=O)c1cc([N+](=O)[O-])ccc1Cl"
  class: "inactive"
- itemSmiles: "COc1ccc(C/C(=C(\\C)c2ccc(OCCN3CCCC3)cc2)c2ccc(OCCN3CCCC3)cc2)cc1"
  class: "active"
- itemSmiles: "Cn1cc(-c2nc(-c3c[nH]c4c(Cl)nccc34)cs2)c2cc(Br)ccc21"
  class: "inactive"
- itemSmiles: "Cc1nc2ccc(Cl)cn2c1-c1nnc(SCc2ccc([N+](=O)[O-])cc2)o1"
  class: "inactive"
- itemSmiles: "COc1cc2c(=O)n(CCN(C)C)c3c4cc5c(cc4ccc3c2cc1OC)OCO5"
  class: "active"

Identify the outcome logged in this assay for the molecule shown: O=C1c2ccc3c4c(ccc(c24)C(=O)N1CCCNCc1ccccc1Cl)C(=O)N(CCCNCc1ccccc1Cl)C3=O active

Call for entry CCNC(=O)Oc1ccc(/C(=C(\C)c2ccccc2)c2ccc(OCCN(CC)CC)cc2)cc1 : inactive

Hello, I am checking results. What call was entered for CCCCCN1C=C/C(=C\C(=O)N2CCCc3ccccc32)c2ccccc21 ? inactive

Any idea what this test logged for Cc1cc2c(c(C)c1Cl)C(=O)/C(=C/c1ccc(O)c(O)c1)O2 ? inactive

Look up the recorded call for C#Cc1cccc(NC(=O)c2cccc(NC(=O)CCl)c2)c1 in this test. active

---

# Test system: SF-268 CNS
# assayName: NCI-60 one-dose screen, 48 h
# conditionDescription: 10 µM unless noted
Compounds without any hit were thinned out: in the full panel of roughly 83,000, 20% have a hit. Activity calls are given as the source filed them. How the source made its calls: active means growth percent below 10; inactive means the rest.
Field 'call' accepts Y = active, N = inactive

- molecule: "Cn1nc(CC#N)c2c(=N)n(N)cnc21"
  class: "N"

Which outcome did this test record for the molecule CCNC(=O)Oc1ccc(/C(=C(\C)c2ccccc2)c2ccc(OCCN3CCCCC3)cc2)cc1 ? N

What classification did COc1ccccc1/C(C)=N/NC(=O)CSc1nc2ccccc2c(=O)n1Cc1ccc(S(N)(=O)=O)cc1 end up with in this test? N

Given O=C(CCN1CCCC1)Nc1ccc2c(NCCc3ccccc3)c3ccccc3nc2c1 , state the outcome it received in this test. Y

---

# Tested on: RPMI-8226 leukemia
# assayName: NCI-60 one-dose screen, 48 h (100 = growth as untreated, 0 = no growth, -100 = all killed)
# conditionDescription: 10 µM unless noted
The panel holds about 83,000 compounds, 20% with a hit somewhere; the sample as a whole holds those more often.
measuredQuantity: growth (%)
Please state the figure in %; there is no need to write the unit.

- compound: "OCc1cnc2ccccc2c1NC1CCCCCC1"
  growth / %: 75
- compound: "O=S(=O)(NCCNc1nccc(-c2c(-c3cccc(O)c3)nc3occn23)n1)c1ccc(Cl)cc1"
  growth / %: 105
- compound: "COc1cc(/C=C\\c2cc(OC)c(OC)c(OC)c2)cc(N)c1OC"
  growth / %: 89.7

Moving on to the next compound.
Which value of growth has been reported for Cn1ccc2c1CC1CN(Cc3ccco3)C(=O)C1C2C(=O)O (stereo unspecified) in the records? 109

---

# System: NCI-H460 lung
# assayName: NCI-60 one-dose screen, 48 h (100 = growth as untreated, 0 = no growth, -100 = all killed)
# conditionDescription: 10 µM unless noted
This is part of a sample that, as a whole, favours compounds with a hit. Of some 83,000 tested, about 20% had one in any assay.
# growth listing for each entry below
Please respond with the number in % and leave the unit unwritten.

# annotated cases, reported growth shown
- compound: "O=C(/C=C/c1ccc(F)cc1)c1ccc(NC(=O)N2CCN(c3cc4c(cc3F)c(=O)c(C(=O)O)cn4C3CC3)CC2)cc1"
  growth, %: 82.9
- compound: "OC(c1ccc(F)c(C(F)(F)F)c1)c1cnccc1NC1CCCCC1 (centres undefined)"
  growth, %: 69.5
- compound: "O=C(Nc1ccc(-c2ccc3c(c2)NC(=O)/C3=C\\c2ccc[nH]2)cc1)NC1CC1"
  growth, %: 59.8

Reported growth for CCN(CC)c1ccc(/C=N/NC(=O)CSc2nc3ccccc3c(=O)n2CCc2ccc(S(N)(=O)=O)cc2)c(O)c1 : what is it? 12.8

---

# Tested on: NCI-H322M lung
# assayName: NCI-60 one-dose screen, 48 h (100 = growth as untreated, 0 = no growth, -100 = all killed)
# conditionDescription: 10 µM unless noted
The panel holds about 83,000 compounds, 20% with a hit somewhere; the sample as a whole holds those more often.
measuredQuantity: growth (%)
Write it as a number; the unit % goes unstated.

Look over these answered cases.
- compound: "COc1cc(/C(C)=C(\\c2ccc(Cl)cc2)c2ccc(OCCN3CCCC3)cc2)ccc1F"
  growth / %: 71
- compound: "CCNc1nc2cc(Nc3ccnc4cc(Cl)ccc34)ccc2o1"
  growth / %: 92.9
- compound: "NS(=O)(=O)c1ccc(CCN2C(=O)C3C(C2=O)C2(Cl)C(Cl)=C(Cl)C3(Cl)C2(Cl)Cl)cc1 (stereo not given)"
  growth / %: 104
- compound: "Cc1ccc(NC(C(=O)c2ccccc2)c2ccccc2)cc1 (stereo not given)"
  growth / %: 97.3
- compound: "O=C(Nc1cccc(C(=O)N2CCc3ccc(Cl)cc32)c1)c1ccco1"
  growth / %: 65.2
- compound: "O=C(Nc1ccc(F)cc1)Nc1ccc(NC(=O)c2cc(Cl)nc3ccccc23)cc1"
  growth / %: 59.6

Tell me the measured growth of COc1ccc(C(=O)/C=C/c2cc3ccccc3n3nnnc23)cc1 , please. 103

So what's the measured growth for this one? COc1ccc(/C=C/c2nc(Nc3ccc(S(=O)(=O)Nc4nc(C)cc(C)n4)cc3)c3ccccc3n2)cc1 29

// growth lookup, key: N#CC(C#N)=Cc1cc2ccccc2nc1Oc1ccc(C(F)(F)F)cc1 99.2

Consider the compound shown here: CCCCOc1ccc(/C(C)=N/Nc2cc(C)nc3ccc(Br)cc23)cc1 What is its recorded growth? 103

Can you share its growth? I mean this compound: Cc1cc2nc3c4cc(C=O)ccc4n(CCN(C)C)c3nc2cc1C 21

Fill blank: measured growth of the compound CCNC(=O)Oc1ccc(/C(=C(\C)c2ccccc2)c2ccc(OCCN(CC)CC)cc2)cc1 is ____. 99

Item under review: C=CC(=O)N[C@@H](/C=C/C(=O)OCC)Cc1ccc(-c2cc(Cl)cc(Cl)c2)cc1 . Reported growth? 58.9

Entry CCSCC1CC(O)(c2ccccc2)CC(c2ccc(F)cc2)O1 (stereo not given) : reported growth = ? 45.4

Suppose we examine the compound Cc1nn(-c2ccccc2)c(Cl)c1/C=N\N=c1/sc2ccccc2n1C ; what growth value has been reported? 97.5

Sample CCOC(=O)CC1CSC(N/N=C/c2ccc(-n3cccn3)cc2)=N1 (stereo not given) — what was its growth? 104

growth lookup needed for CC(=O)[C@@H]1CC[C@]2(C(N)=O)CC[C@]3(C)[C@H](CC[C@@H]4[C@@]5(C)CCCNC(C)(C)[C@@H]5CC[C@]43C)[C@@H]12 , thanks. 96.3

growth for O=[N+]([O-])CC(c1ccccc1F)c1c[nH]c2ccccc12 (stereo not given) ? 96

Which value of growth has been reported for O=C1C=CC(=O)N1c1cccc(Cl)c1 in the records? 121

Field request: growth | item: O=C(Nc1cccc(C2=NCCN2)c1)c1ccc(-c2ccc(C(=O)Nc3cccc(C4=NCCN4)c3)cc2)cc1 93.8
